src = ChEMBL document CHEMBL3124772

biological target: Cytochrome P450 2C9 (Homo sapiens, UniProt P11712); experiment: Inhibition of CYP2C9 in human liver microsomes assessed as diclofenac alpha'-hydroxylation; format: ADME
Sequence (P11712 whole entry): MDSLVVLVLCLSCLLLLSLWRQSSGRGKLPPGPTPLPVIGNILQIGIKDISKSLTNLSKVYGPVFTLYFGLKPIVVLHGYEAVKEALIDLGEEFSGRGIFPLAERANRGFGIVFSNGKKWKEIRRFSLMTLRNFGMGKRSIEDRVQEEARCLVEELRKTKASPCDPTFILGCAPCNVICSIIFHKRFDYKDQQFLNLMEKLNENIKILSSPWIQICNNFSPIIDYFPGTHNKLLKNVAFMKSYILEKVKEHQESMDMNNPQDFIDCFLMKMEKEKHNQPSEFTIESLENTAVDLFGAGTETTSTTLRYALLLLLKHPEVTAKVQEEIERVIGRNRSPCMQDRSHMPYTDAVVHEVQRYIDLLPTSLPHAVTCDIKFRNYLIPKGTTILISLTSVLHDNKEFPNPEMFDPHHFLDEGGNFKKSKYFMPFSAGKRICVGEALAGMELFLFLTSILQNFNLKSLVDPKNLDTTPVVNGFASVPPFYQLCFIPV
PROPERTY NAME: IC50 (µM)
Report the figure in µM without appending any unit label.

query: Note down IC50 recorded for Cc1nc2c(s1)CC[C@H]2C(=O)Nc1ccc(C[C@@H]2CC[C@H]([C@H](O)c3cccnc3)N2)cc1
result: 67.2

---

target: Beta-3 adrenergic receptor (Canis lupus familiaris, UniProt O02662); assay: Agonist activity at dog beta-3 adrenergic receptor expressed in CHO cells assessed as increase in intracellular cAMP accumulation after 30 mins by time-resolved fluorescence assay
Sequence (O02662 whole entry): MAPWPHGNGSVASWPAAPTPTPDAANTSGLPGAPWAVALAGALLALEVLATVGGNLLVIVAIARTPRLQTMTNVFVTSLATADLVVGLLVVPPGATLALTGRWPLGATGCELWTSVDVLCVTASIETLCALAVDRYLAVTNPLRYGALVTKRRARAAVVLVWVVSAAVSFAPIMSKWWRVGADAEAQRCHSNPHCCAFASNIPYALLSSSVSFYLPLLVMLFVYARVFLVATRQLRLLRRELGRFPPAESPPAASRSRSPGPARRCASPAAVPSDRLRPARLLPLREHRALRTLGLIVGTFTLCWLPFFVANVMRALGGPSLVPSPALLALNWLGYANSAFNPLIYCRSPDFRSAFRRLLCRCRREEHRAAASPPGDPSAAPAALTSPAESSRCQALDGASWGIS
PROPERTY NAME: pEC50
The meaning of pEC50 here: minus log10 of the concentration in molar units.

Some solved entries appear below for comparison.
structure_notation=O=C(Nc1ccc(C[C@@H]2CC[C@H]([C@H](O)c3cccnc3)N2)cc1)[C@@H]1CCc2scnc21 property_name=pEC50 quantitative_result=8.30
structure_notation=Nc1nc2c(s1)CC[C@H]2C(=O)Nc1ccc(C[C@@H]2CC[C@H]([C@H](O)c3ccccc3)N2)cc1 property_name=pEC50 quantitative_result=9.72

Could you now look at the following molecule, please?
query: Note down pEC50 recorded for O=C(Nc1ccc(C[C@@H]2CC[C@H]([C@H](O)c3cccnc3)N2)cc1)[C@@H]1CCc2ccnn21
result: 7.66

---

molecular target: Beta-3 adrenergic receptor (Homo sapiens); experiment: Agonist activity at human beta-3 adrenergic receptor expressed in CHO cells assessed as increase in intracellular cAMP accumulation after 30 mins by time-resolved fluorescence assay
Sequence (P13945 whole entry): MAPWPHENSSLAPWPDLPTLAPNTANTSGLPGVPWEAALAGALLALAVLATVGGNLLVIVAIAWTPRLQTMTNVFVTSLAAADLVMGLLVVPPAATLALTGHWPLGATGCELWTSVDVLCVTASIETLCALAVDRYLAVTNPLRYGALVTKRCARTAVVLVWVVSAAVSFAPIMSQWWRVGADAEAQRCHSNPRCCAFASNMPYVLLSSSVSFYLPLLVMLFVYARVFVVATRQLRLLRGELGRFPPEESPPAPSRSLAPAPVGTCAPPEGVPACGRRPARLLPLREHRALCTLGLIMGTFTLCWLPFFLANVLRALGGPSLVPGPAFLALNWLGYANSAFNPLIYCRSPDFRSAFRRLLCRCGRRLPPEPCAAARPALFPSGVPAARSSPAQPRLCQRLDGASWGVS
Doc: threshold 0.8 nM (exclusive). Items with EC50 beneath it return fulfilled; others return not fulfilled.

A selection of reference data follows.
structure_notation=O=C(Nc1ccc(C[C@@H]2CC[C@H]([C@H](O)c3cccnc3)N2)cc1)[C@@H]1CCc2sc(C3CC3)nc21 assigned_label="not fulfilled"
structure_notation=C[C@H](C(=O)Nc1ccc(C[C@@H]2CC[C@H]([C@H](O)c3ccccc3)N2)cc1)c1csc(N)n1 assigned_label=fulfilled
structure_notation=Nc1nc2c(s1)CC[C@@H]2C(=O)Nc1ccc(C[C@@H]2CC[C@H]([C@H](O)c3ccccc3)N2)cc1 assigned_label="not fulfilled"
structure_notation=O=C(Nc1ccc(C[C@@H]2CC[C@H]([C@H](O)c3cccnc3)N2)cc1)[C@@H]1CCc2scnc21 assigned_label="not fulfilled"
structure_notation=Nc1nc2c(s1)CCCC[C@H]2C(=O)Nc1ccc(C[C@@H]2CC[C@H]([C@H](O)c3ccccc3)N2)cc1 assigned_label="not fulfilled"

Please turn your attention to the following entry.
query: Is it true that EC50 reported for O=C(Nc1ccc(C[C@@H]2CC[C@H]([C@H](O)c3ccccc3)N2)cc1)[C@@H]1CCc2scnc21 is less than 0.8 nM?
result: fulfilled

---

experiment: Fraction unbound in Beagle dog plasma at 1 mg/kg, iv and 2 mg/kg, po; format: ADME, organism-based, Canis lupus familiaris
PROPERTY NAME: fraction unbound

structure_notation=O=C(Nc1ccc(C[C@@H]2CC[C@H]([C@H](O)c3cccnc3)N2)cc1)[C@@H]1CCc2ccnn21 property_name="fraction unbound" result=0.7

Could you now look at the following molecule, please?
query: Note down fraction unbound recorded for O=C(Nc1ccc(C[C@@H]2CC[C@H]([C@H](O)c3cccnc3)N2)cc1)[C@@H]1CCc2scnc21
result: 0.7

---

test: Half life in Sprague-Dawley rat at 1 mg/kg, iv and 2 mg/kg, po; type: ADME, organism-based; conditions: in vivo
Listing: half-life of selected molecules
Report the figure in h without appending any unit label.

structure_notation=O=C(Nc1ccc(C[C@@H]2CC[C@H]([C@H](O)c3cccnc3)N2)cc1)[C@@H]1CCc2scnc21 property_name=half-life quantitative_result=2
structure_notation=O=C(Nc1ccc(C[C@@H]2CC[C@H]([C@H](O)c3ccccc3)N2)cc1)[C@@H]1CCc2scnc21 property_name=half-life quantitative_result=1

query: Note down half-life recorded for O=C(Nc1ccc(C[C@@H]2CC[C@H]([C@H](O)c3cccnc3)N2)cc1)[C@@H]1CCc2ccnn21
result: 3

---

experiment: Half life in rhesus monkey at 3 mg/kg, iv; format: ADME, organism-based, Macaca mulatta; parameters: dose 3 mg/kg, route intravenous; details: in vivo
PROPERTY NAME: half-life (h)
Report the figure in h without appending any unit label.

query: Note down half-life recorded for O=S(=O)(Nc1ccc(CCNC[C@H](O)c2cccnc2)cc1)c1ccc(-c2nc(-c3ccc(C(F)(F)F)cc3)cs2)cc1
result: 9

---

experiment: Oral bioavailability in Sprague-Dawley rat at 2 mg/kg; type: ADME, organism-based; conditions: in vivo
PROPERTY NAME: bioavailability (%)
Report the figure in % without appending any unit label.

Some solved entries appear below for comparison.
structure_notation=O=C(Nc1ccc(C[C@@H]2CC[C@H]([C@H](O)c3cccnc3)N2)cc1)[C@@H]1CCc2ccnn21 property_name=bioavailability quantitative_result=35
structure_notation=Nc1nc2c(s1)CC[C@H]2C(=O)Nc1ccc(C[C@@H]2CC[C@H]([C@H](O)c3ccccc3)N2)cc1 property_name=bioavailability quantitative_result=6
structure_notation=Cc1nc2c(s1)CC[C@H]2C(=O)Nc1ccc(C[C@@H]2CC[C@H]([C@H](O)c3ccccc3)N2)cc1 property_name=bioavailability quantitative_result=6
structure_notation=Cc1nc2c(s1)CC[C@H]2C(=O)Nc1ccc(C[C@@H]2CC[C@H]([C@H](O)c3cccnc3)N2)cc1 property_name=bioavailability quantitative_result=46

query: Note down bioavailability recorded for Nc1nc2c(s1)CCC[C@H]2C(=O)Nc1ccc(C[C@@H]2CC[C@H]([C@H](O)c3ccccc3)N2)cc1
result: 0

---

assay: Intrinsic clearance in human liver microsomes; format: ADME; conditions: read-out: CLH
PROPERTY NAME: CLint scaled (mL/min/kg)
Report the figure in mL/min/kg without appending any unit label.

query: Note down CLint scaled recorded for O=C(Nc1ccc(C[C@@H]2CC[C@H]([C@H](O)c3cccnc3)N2)cc1)[C@@H]1CCc2ccnn21
result: 19

---

Listing: pIC50 of selected compounds
biological target: Cytochrome P450 2D6 (Homo sapiens, UniProt P10635)
Sequence (P10635 whole entry): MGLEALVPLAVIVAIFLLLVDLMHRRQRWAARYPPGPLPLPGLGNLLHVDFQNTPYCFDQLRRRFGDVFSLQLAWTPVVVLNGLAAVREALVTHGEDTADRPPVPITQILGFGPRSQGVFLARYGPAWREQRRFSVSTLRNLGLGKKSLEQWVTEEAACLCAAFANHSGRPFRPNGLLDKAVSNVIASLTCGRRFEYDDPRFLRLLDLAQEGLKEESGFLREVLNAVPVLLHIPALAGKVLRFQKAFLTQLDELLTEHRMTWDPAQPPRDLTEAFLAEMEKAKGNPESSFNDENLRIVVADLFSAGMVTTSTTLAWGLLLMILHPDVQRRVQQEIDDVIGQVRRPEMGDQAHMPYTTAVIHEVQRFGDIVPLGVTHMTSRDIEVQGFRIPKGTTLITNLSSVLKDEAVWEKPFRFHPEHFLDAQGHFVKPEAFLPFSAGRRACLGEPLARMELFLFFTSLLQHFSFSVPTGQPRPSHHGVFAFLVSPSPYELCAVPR
The meaning of pIC50 here: minus log10 of the concentration in molar units.

Some solved entries appear below for comparison.
compound=Nc1nc2c(s1)CC[C@H]2C(=O)Nc1ccc(C[C@@H]2CC[C@H]([C@H](O)c3ccccc3)N2)cc1 quantitative_result=4.74
compound="Nc1nc(CC(=O)Nc2ccc(C[C@@H]3CCC([C@H](O)c4ccccc4)N3)cc2)cs1 (single isomer, unassigned)" quantitative_result=5.66

Could you now look at the following compound, please?
query: Lab note: record pIC50 of O=C(Nc1ccc(C[C@@H]2CC[C@H]([C@H](O)c3cccnc3)N2)cc1)[C@@H]1CCc2scnc21 tested on Cytochrome P450 2D6 (Homo sapiens, UniProt P10635).
result: 4.10

---

biological target: Beta-3 adrenergic receptor (Homo sapiens); experiment: Agonist activity at human beta-3 adrenergic receptor expressed in CHO cells assessed as increase in intracellular cAMP accumulation at 10^-10 to 10^-5 M after 30 mins by time-resolved fluorescence assay relative to R-(-)isoproterenol; type: functional, cell-based
Sequence (P13945 whole entry, looked up): as the sequence (P13945 whole entry) above
Doc: threshold 80% (exclusive). Items with Activity beneath it return true (1); others return false (0).

structure_notation=Nc1nc2c(s1)CC[C@H]2C(=O)Nc1ccc(C[C@@H]2CC[C@H]([C@H](O)c3cccc(F)c3)N2)cc1 assigned_label="false (0)"

query: Is it true that Activity reported for Nc1nc2c(s1)CC[C@@H]2C(=O)Nc1ccc(C[C@@H]2CC[C@H]([C@H](O)c3ccccc3)N2)cc1 is less than 80%?
result: false (0)

query: Is it true that Activity reported for O=C(Nc1ccc(C[C@@H]2CC[C@H]([C@H](O)c3ccccc3)N2)cc1)[C@@H]1CCc2scnc21 is less than 80%?
result: false (0)

query: Is it true that Activity reported for O=C(Nc1ccc(C[C@@H]2CC[C@H]([C@H](O)c3ccccc3)N2)cc1)[C@@H]1CCc2sc(-c3ccc(F)cc3)nc21 is less than 80%?
result: true (1)

query: Is it true that Activity reported for C[C@@H](C(=O)Nc1ccc(C[C@@H]2CC[C@H]([C@H](O)c3cccnc3)N2)cc1)n1cccn1 is less than 80%?
result: false (0)

query: Is it true that Activity reported for CC[C@@H](C(=O)Nc1ccc(C[C@@H]2CC[C@H]([C@H](O)c3ccccc3)N2)cc1)c1csc(N)n1 is less than 80%?
result: false (0)

query: Is it true that Activity reported for O=C(Nc1ccc(C[C@@H]2CC[C@H]([C@H](O)c3cccnc3)N2)cc1)[C@@H]1CCc2sc(C3CC3)nc21 is less than 80%?
result: true (1)

---

Listing: logD of selected compounds
test: Lipophilicity, log D of the compound at pH 7.3; format: physicochemical; settings: buffer
# respond with the number and nothing more

Some solved entries appear below for comparison.
structure_notation=O=S(=O)(Nc1ccc(CCNC[C@H](O)c2cccnc2)cc1)c1ccc(-c2nc(-c3ccc(C(F)(F)F)cc3)cs2)cc1 quantitative_result=4.6
structure_notation=O=C(Nc1ccc(C[C@@H]2CC[C@H]([C@H](O)c3cccnc3)N2)cc1)[C@@H]1CCc2scnc21 quantitative_result=0.9

query: Note down logD recorded for O=C(Nc1ccc(C[C@@H]2CC[C@H]([C@H](O)c3cccnc3)N2)cc1)[C@@H]1CCc2ccnn21
result: 0.9
